Source: the Deep4Chem optical property database

# experiment_description: solvent given as SMILES
# cond: in ClCCl
value_kind: absorption maximum

molecule=COc1ccc(N(c2ccc(OC)cc2)c2ccc3c(c2)C2(c4cc(N(c5ccc(OC)cc5)c5ccc(OC)cc5)ccc4C=C3)c3ccccc3-c3ccccc32)cc1 value_kind="absorption maximum" experimental_result="414 nm"
molecule=Cc1ccc(C2=C(c3ccc(C)cc3)c3cccc4c3c(cc3nc5ccccc5nc34)O2)cc1 value_kind="absorption maximum" experimental_result="498 nm"
molecule=O=[N+]([O-])c1ccc(C#Cc2ccc3ccccc3c2)cc1 value_kind="absorption maximum" experimental_result="339 nm"
molecule=COc1ccc(C#Cc2ccc(C#N)cc2)cc1OC value_kind="absorption maximum" experimental_result="331 nm"
molecule=FC(F)(F)c1ccc(/C2=C3N=C(C(c4ccccc4)=C/3c3ccccc3)/C(c3ccc(C(F)(F)F)cc3)=c3\[nH]/c(c(-c4ccccc4)c3-c3ccccc3)=C(/c3ccc(C(F)(F)F)cc3)C3=N/C(=C(/c4ccc(C(F)(F)F)cc4)c4[nH]c2c(-c2ccccc2)c4-c2ccccc2)C(c2ccccc2)=C3c2ccccc2)cc1 value_kind="absorption maximum" experimental_result="708 nm"
molecule=CC[n+]1c(C=C2C(=O)C(C=C3N(C)c4ccccc4C3(C)C)=C2[O-])[se]c2ccccc21 value_kind="absorption maximum" experimental_result="658 nm"

Query string: Answer with the recorded absorption maximum for the molecule listed here: CC(C)[Si](C#Cc1c2ccccc2c(C#C[Si](C(C)C)(C(C)C)C(C)C)c2nc3c4ccccc4c(=O)c4ccccc4c3nc12)(C(C)C)C(C)C
Result string: 509 nm

Query string: In one line, give reported absorption maximum of the entry C(=C\c1ccc(-c2ccncc2)cc1)/c1ccc(-c2ccncc2)cc1 .
Result string: 345 nm

---

# experiment_description: solvent given as SMILES
# cond: in CCCCCCCCO
Quick list: absorption maximum per entry.
Give the value in nm but do not write nm after it.

molecular_string=COc1ccc(C#Cc2c3ccccc3c3n2[B-](F)(F)[N+]2=C(C)C=C(C)C2=C3)cc1 experimental_result=615
molecular_string=CC1=CC(C)=[N+]2C1=Cc1c3ccccc3c(C#Cc3ccccc3)n1[B-]2(F)F experimental_result=612
molecular_string=CS(=O)(=O)c1ccc(-c2cc3ccc(N)cc3c(=O)o2)cc1 experimental_result=366
molecular_string=CN1CCN(c2ccc3c4c(cccc24)C(=O)c2ccccc2-3)CC1 experimental_result=451
molecular_string=CN(C)c1cc(C#N)c(N(C)C)c(C#N)c1 experimental_result=393.39
molecular_string=CCc1ccc(/C=C/c2ccc(-c3nnc(-c4ccc(-c5cc6ccccc6s5)cc4)o3)cc2)cc1 experimental_result=357

Query string: Provide only the value of recorded absorption maximum for CC1=CC(C)=[N+]2C1=Cc1c3ccccc3c(C#Cc3ccc(F)cc3)n1[B-]2(F)F
Result string: 613

Query string: Specify measured absorption maximum for CN(C)c1ccc(/C=C/c2ccc(-c3nnc(-c4ccc(-c5cc6ccccc6s5)cc4)o3)cc2)cc1 .
Result string: 343

Query string: Fill in absorption maximum for record CN(C)c1ccc(/C=C/c2cc[n+](Cc3cc(C[n+]4ccc(/C=C/c5ccc(N(C)C)cc5)cc4)cc(C[n+]4ccc(/C=C/c5ccc(N(C)C)cc5)cc4)c3)cc2)cc1
Result string: 489

---

# experiment_description: solvent given as SMILES
# cond: in ClC(Cl)Cl
value_kind: absorption maximum (nm)
Use nm as the unit, but write only the number.

Answered examples (2):
molecular_string=N#C/C(=C\c1cc(/C=C(\C#N)c2ccc(C(F)(F)F)cc2)c(-c2ccc(N(c3ccccc3)c3ccccc3)cc2)cc1-c1ccc(N(c2ccccc2)c2ccccc2)cc1)c1ccc(C(F)(F)F)cc1 value_kind="absorption maximum" units_symbol=nm experimental_result=407
molecular_string=Cc1ccc(C(=O)/C=C/c2ccc(N(C)C)cc2)cc1 value_kind="absorption maximum" units_symbol=nm experimental_result=412

Query string: Please give the documented absorption maximum of c1ccc2cc(-c3cc(-c4nccs4)nc(-c4nccs4)c3)ccc2c1
Result string: 329

Query string: Look up and report measured absorption maximum for this entry: CCCCCCCCN1c2ccc(C#Cc3cc(C(F)(F)F)cc(C(F)(F)F)c3)cc2Sc2cc(C=O)ccc21
Result string: 386

Query string: Tell me measured absorption maximum for CC[n+]1c(C=C2C(=O)C(C=C3N(C)c4ccc(Cl)cc4C3(C)C)=C2[O-])sc2ccccc21 please.
Result string: 649

Query string: Return value of absorption maximum for input CCCCCCCCN1C(=O)c2ccc3c4c(-c5ccc(-n6c7ccccc7c7ccccc76)cc5)cc5c6c(cc(-c7ccc(-n8c9ccccc9c9ccccc98)cc7)c(c7ccc(c2c37)C1=O)c64)C(=O)N(CCCCCCCC)C5=O , no commentary.
Result string: 551

Query string: Name the recorded absorption maximum of the item COCCOCCOCCNc1cc2c3c(c(NCCOCCOCCOC)cc4c3c1C(=O)N(CCOCCOCCOC)C4=O)C(=O)N(CCOCCOCCOC)C2=O in your answer.
Result string: 610

---

# experiment_description: solvent given as SMILES
# cond: in C1COCCO1
The following compounds are shown together with reported absorption maximum values.
Don't forget the unit after the number, please.

Observe how each entry below is paired with its result.
compound=CCCCCCCN1C(=CC2=C([O-])C(=CC3=[N+](CCCCCCC)c4ccccc4C3(C)C)C2=C(C#N)C#N)Sc2ccccc21 experimental_result="694 nm"
compound=Cc1cc2c(o1)c(C)cc1ccc(=O)oc12 experimental_result="315 nm"
compound=CCN(CC)c1ccc(Nc2cc3oc(-c4ccc(C#N)cc4)nc3c3ccccc23)cc1 experimental_result="420 nm"

Query string: Give the reported absorption maximum for this compound. CCn1c(=O)nc2n(C)c3cc(C)ccc3nc-2c1=O
Result string: 443 nm

Query string: // fetch absorption maximum given entry c1ccc(-c2nc(-c3ccc(-c4ccc(N(c5ccccc5)c5ccccc5)cc4)cn3)oc2-c2ccccc2)cc1
Result string: 354 nm

---

# experiment_description: solvent given as SMILES
# cond: in CCCCO
Simple rule here: absorption maximum less than 400 nm is Fulfilled, otherwise Not fulfilled.

Sample answers from the record:
molecular_string=COc1cccc(-n2c(-c3ccc(F)cc3)nc(C)c2C)c1 group_label=Fulfilled
molecular_string=Oc1ccc(/N=C/c2ccccc2Oc2ccccc2)cc1 group_label=Fulfilled

Query string: Quick check: absorption maximum of COC(=O)c1c2ccccc2nc2ccccc12 under 400 nm?
Result string: Fulfilled

Query string: Check if absorption maximum falls below 400 nm for O=C1c2ccccc2-c2ccc(N3CCN(c4ccccc4)CC3)c3cccc1c23 .
Result string: Not fulfilled

Query string: Record CS(=O)(=O)c1ccc(-c2cc3ccc(N)cc3c(=O)o2)cc1 : is its absorption maximum strictly below 400 nm?
Result string: Fulfilled

Query string: Please let me know if COCCOc1ccc(OCCOC)c(C=O)c1 shows absorption maximum below 400 nm.
Result string: Fulfilled

Query string: For CCCCCCC(CCCCCC)N1C(=O)c2cccc3c(-c4ccc(OC)cc4)ccc(c23)C1=O , is the recorded absorption maximum below the cut-off of 400 nm?
Result string: Fulfilled

Query string: I'd appreciate it if you could check whether O=C1Nc2ccccc2/C1=C/C(=O)c1ccc(O)cc1 has absorption maximum smaller than 400 nm.
Result string: Fulfilled

Query string: Decide: absorption maximum of CCC[n+]1ccc(/C=C/c2ccc(N(C)C)cc2)cc1 strictly below 400 nm?
Result string: Not fulfilled

Query string: State whether 400 nm exceeds absorption maximum recorded for Nc1ccc2c(C(F)(F)F)cc(=O)oc2c1 .
Result string: Fulfilled

Query string: Check if absorption maximum falls below 400 nm for Oc1ccccc1/N=C/c1ccccc1Oc1ccccc1 .
Result string: Fulfilled

---

# experiment_description: solvent given as SMILES
# cond: in CS(C)=O
Entries and their absorption maximum values follow.
Please give a number only; it is taken to be in nm.

Examples with their reported absorption maximum follow.
molecular_string=CCCCCCCCN1c2ccc(C#Cc3cc(C(F)(F)F)cc(C(F)(F)F)c3)cc2Sc2cc(C=O)ccc21 units_symbol=nm experimental_result=396
molecular_string=COc1ccc(/N=N/c2c(O)c3ccccc3n(C)c2=O)c(S(=O)(=O)O)c1 units_symbol=nm experimental_result=447

Query string: Complete the entry with absorption maximum for Oc1ccc(/N=C/c2ccccc2Oc2ccccc2)cc1
Result string: 348

Query string: Answer with the recorded absorption maximum for the compound listed here: CC(=O)c1c2c(cc3ccc(N(C)C)cc13)CCC2
Result string: 377

Query string: Return the recorded absorption maximum value; entry: CCCCCCCCCCCCC1(CCCCCCCCCCCC)c2cc(-c3ccc(C=C4C(=O)c5ccccc5C4=O)cc3)ccc2-c2ccc(-c3ccc(C=C4C(=O)c5ccccc5C4=O)cc3)cc21
Result string: 437

Query string: Retrieve absorption maximum measured for CN(C)c1cc(C#N)c(N(C)C)c(C#N)c1 and print it.
Result string: 396.83

Query string: // fetch absorption maximum given entry O=[N+]([O-])c1ccc(N/C=C/C=[NH+]c2ccc([N+](=O)[O-])cc2)cc1
Result string: 388

Query string: Give reported absorption maximum value for CN(C)c1ccc(/C=C/c2cc[n+](Cc3cc(C[n+]4ccc(/C=C/c5ccc(N(C)C)cc5)cc4)cc(C[n+]4ccc(/C=C/c5ccc(N(C)C)cc5)cc4)c3)cc2)cc1
Result string: 491

Query string: Identify absorption maximum associated with the compound Cn1c2ccccc2[c+](-c2ccccc2)c2cc([N+](=O)[O-])ccc21
Result string: 434.3

Query string: Let me know recorded absorption maximum for C#CCn1c2ccccc2c2cc(/C=C/c3c(Cl)c(C)c4n3[B-](F)(F)[N+]3=C(C)C(Cl)=C(C)C3=C4c3ccc(I)cc3)ccc21 , thanks.
Result string: 616

Query string: Please indicate absorption maximum recorded for Cc1cccc2cc(-c3cc4cccc(C)c4oc3=O)oc12
Result string: 373

Query string: Return reported absorption maximum. Input compound: c1ccc(-c2oc(-c3ccccc3)c3ccccc23)cc1
Result string: 416

Query string: Return the recorded absorption maximum value; entry: Oc1ccccc1/N=C/c1ccccc1Oc1ccccc1
Result string: 373

Query string: For the compound CC(C)CCCCN1CCc2c1ccc1c3c(ccc21)C(=O)CCC3 , give its measured absorption maximum value.
Result string: 376

Query string: Give the reported value of absorption maximum for this record: [O-]c1c(-c2nc3ccccc3s2)cc2ccc3cccc4ccc1c2c34
Result string: 524

Query string: Determine from records and report absorption maximum for CN(C)c1ccc2nc(-c3ccc(C(=O)OC(C)(C)C)cc3)sc2c1
Result string: 403
